// provenance: ChEMBL document CHEMBL1125775

subject_of_test: Histamine H1 receptor (Homo sapiens)
Sequence (P35367 whole entry): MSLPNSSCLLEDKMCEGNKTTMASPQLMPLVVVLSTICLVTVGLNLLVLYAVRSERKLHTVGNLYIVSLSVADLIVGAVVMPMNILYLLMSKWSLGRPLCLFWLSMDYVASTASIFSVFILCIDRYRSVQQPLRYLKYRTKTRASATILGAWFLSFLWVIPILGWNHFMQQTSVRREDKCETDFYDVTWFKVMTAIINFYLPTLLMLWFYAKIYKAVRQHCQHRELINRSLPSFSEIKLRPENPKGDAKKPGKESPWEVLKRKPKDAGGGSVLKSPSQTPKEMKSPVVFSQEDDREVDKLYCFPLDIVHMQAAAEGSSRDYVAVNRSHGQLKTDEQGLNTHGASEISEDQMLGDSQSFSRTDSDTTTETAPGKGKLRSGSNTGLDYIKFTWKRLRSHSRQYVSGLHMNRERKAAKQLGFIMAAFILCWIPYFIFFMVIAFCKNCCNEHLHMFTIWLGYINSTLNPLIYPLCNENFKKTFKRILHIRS
pIC50: −log10 of the molar value.

| compound | pIC50 |
| --- | --- |
| CC(C(O)c1ccc(O)cc1)N1CCC(Cc2ccccc2)CC1 (stereo unspecified) | 6.00 |

###

subject_of_test: D(1A) dopamine receptor (Mus musculus, UniProt Q61616)
Sequence (Q61616 whole entry): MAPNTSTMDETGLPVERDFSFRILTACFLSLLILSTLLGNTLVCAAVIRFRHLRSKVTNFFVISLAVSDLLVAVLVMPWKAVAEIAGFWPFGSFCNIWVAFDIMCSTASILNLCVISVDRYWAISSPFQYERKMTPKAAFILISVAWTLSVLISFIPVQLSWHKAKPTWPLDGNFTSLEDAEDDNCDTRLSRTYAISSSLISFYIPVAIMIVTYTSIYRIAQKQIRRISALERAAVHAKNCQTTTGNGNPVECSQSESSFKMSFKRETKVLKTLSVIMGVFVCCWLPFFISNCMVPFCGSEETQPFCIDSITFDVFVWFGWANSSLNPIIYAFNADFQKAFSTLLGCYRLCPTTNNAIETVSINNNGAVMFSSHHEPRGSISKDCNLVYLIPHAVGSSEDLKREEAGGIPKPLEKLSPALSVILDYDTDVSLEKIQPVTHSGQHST
measurement_notes: Compound was tested for the binding affinity against dopamine receptor D1 by using [3H]-SCH- 23390 as radioligand
recorded_metric: IC50

| compound | recorded_metric | assay_value |
| --- | --- | --- |
| CC(C(O)c1ccc(O)cc1)N1CCC(Cc2ccccc2)CC1 (stereo unspecified) | IC50 | > 1000 nM |

###

subject_of_test: Adrenergic receptor alpha-1 (Rattus norvegicus, UniProt P15823+P23944+P43140)
measurement_notes: Binding affinity against alpha-1 adrenergic receptor
Assay type: protein assay
This section presents compounds with their documented IC50 values.
recorded_metric: IC50

| compound | subject_of_test | assay_value |
| --- | --- | --- |
| CC(Cc1ccc(O)cc1)N1CCC(Cc2ccccc2)CC1 (stereo unspecified) | Adrenergic receptor alpha-1 (Rattus norvegicus, UniProt P15823+P23944+P43140) | 130 nM |
| C[C@@H]([C@@H](O)c1ccc(O)cc1)N1CCCCC1 | Adrenergic receptor alpha-1 (Rattus norvegicus, UniProt P15823+P23944+P43140) | > 10000 nM |
| CCCC1CCN([C@@H](C)[C@@H](O)c2ccc(O)cc2)CC1 | Adrenergic receptor alpha-1 (Rattus norvegicus, UniProt P15823+P23944+P43140) | 2867 nM |
| C[C@@H]([C@@H](O)c1ccc(F)cc1)N1CCC(Cc2ccccc2)CC1 | Adrenergic receptor alpha-1 (Rattus norvegicus, UniProt P15823+P23944+P43140) | 2566 nM |
| CC(CO)N1CCC(Cc2ccccc2)CC1 (stereo unspecified) | Adrenergic receptor alpha-1 (Rattus norvegicus, UniProt P15823+P23944+P43140) | > 10000 nM |
| C[C@@H]([C@H](O)c1ccc(F)cc1)N1CCC(Cc2ccccc2)CC1 | Adrenergic receptor alpha-1 (Rattus norvegicus, UniProt P15823+P23944+P43140) | 220 nM |
| OC(CN1CCC(Cc2ccccc2)CC1)c1ccccc1 (stereo unspecified) | Adrenergic receptor alpha-1 (Rattus norvegicus, UniProt P15823+P23944+P43140) | 2133 nM |
| C[C@@H]([C@@H](O)c1ccc(O)cc1)N1CCN(C(=O)c2ccccc2)CC1 | Adrenergic receptor alpha-1 (Rattus norvegicus, UniProt P15823+P23944+P43140) | > 10000 nM |
| c1ccc(CCN2CCC(Cc3ccccc3)CC2)cc1 | Adrenergic receptor alpha-1 (Rattus norvegicus, UniProt P15823+P23944+P43140) | 347 nM |
| C[C@@H]([C@H](O)c1ccc(O)cc1)N1CCC(Cc2ccccc2)CC1 [(R,S)-IFENPRODIL] | Adrenergic receptor alpha-1 (Rattus norvegicus, UniProt P15823+P23944+P43140) | 135 nM |
| C[C@@H]([C@H](O)c1ccccc1)N1CCC(Cc2ccccc2)CC1 | Adrenergic receptor alpha-1 (Rattus norvegicus, UniProt P15823+P23944+P43140) | 573 nM |

###

subject_of_test: Glutamate NMDA receptor
measurement_notes: N-methyl-D-aspartate glutamate receptor antagonistic activity in cell culture(CC)model
recorded_metric: IC50 (µM)

| compound | subject_of_test | recorded_metric | sign | assay_value |
| --- | --- | --- | --- | --- |
| C[C@@H]([C@@H](O)c1ccc(O)cc1)N1CCCCC1 | Glutamate NMDA receptor | IC50 | > | 10 |
| CC(Cc1ccc(O)cc1)N1CCC(Cc2ccccc2)CC1 (stereo unspecified) | Glutamate NMDA receptor | IC50 | = | 0.153 |
| C[C@@H]([C@@H](O)c1ccccc1)N1CCC(Cc2ccccc2)CC1 | Glutamate NMDA receptor | IC50 | = | 3.7 |
| C[C@@H]([C@@H](O)c1ccc(O)cc1)N1CCN(C(=O)c2ccccc2)CC1 | Glutamate NMDA receptor | IC50 | > | 10 |
| OC(CN1CCC(Cc2ccccc2)CC1)c1ccccc1 (stereo unspecified) | Glutamate NMDA receptor | IC50 | = | 5 |
| CC(CO)N1CCC(Cc2ccccc2)CC1 (stereo unspecified) | Glutamate NMDA receptor | IC50 | > | 10 |
| C[C@@H]([C@H](O)c1ccc(O)cc1)N1CCCCC1 | Glutamate NMDA receptor | IC50 | > | 10 |
| C[C@@H]([C@@H](O)c1ccc(F)cc1)N1CCC(Cc2ccccc2)CC1 | Glutamate NMDA receptor | IC50 | = | 0.1 |
| C[C@@H]([C@@H](O)c1ccc(O)cc1)N1CCN(Cc2ccccc2)CC1 | Glutamate NMDA receptor | IC50 | = | 10 |
| CCCC1CCN([C@@H](C)[C@@H](O)c2ccc(O)cc2)CC1 | Glutamate NMDA receptor | IC50 | = | 6.3 |
| c1ccc(CCN2CCC(Cc3ccccc3)CC2)cc1 | Glutamate NMDA receptor | IC50 | = | 0.29 |
